- System: T. congolense IL3000
- assay comment: In vitro trypanocidal activity (CellTiter-Glo, 3 days)
- Format: cell-based
- condition info: Trypanosoma congolense, 72 h, bloodstream forms, 33 °C, mean ± SD of triplicate, read-out: Trypanocidal Activity IC50 ± SD, Tc IL3000
Note to self: class = bucket of IC50, per bin 0 = under 0.04 µM, bin 1 = from 0.04 µM up to 0.3 µM, bin 2 = 0.3 µM and over

## Task Assign a category based on measured IC50 for O=C1CN(/N=C/c2ccc([N+](=O)[O-])o2)C(=O)N1CCCc1ccccc1 [Analog 13] and give only the class name.
## Result bin 1

***
## Task Assign a category based on measured IC50 for CCCCCCN1C(=O)CN(/N=C/c2ccc([N+](=O)[O-])o2)C1=O [Analog 6] and give only the class name.
## Result bin 1

## Task Another compound to look at: Cc1ccc(C(=O)Nc2ccc(S(=O)(=O)O)c3cc(S(=O)(=O)O)cc(S(=O)(=O)O)c23)cc1NC(=O)c1cccc(NC(=O)Nc2cccc(C(=O)Nc3cc(C(=O)Nc4ccc(S(=O)(=O)O)c5cc(S(=O)(=O)O)cc(S(=O)(=O)O)c45)ccc3C)c2)c1 [Suramin, reference compound]
## Result bin 2

## Task Another compound to look at: CCCCCCCCN1C(=O)CN(/N=C/c2ccc([N+](=O)[O-])o2)C1=O [Analog 8]
## Result bin 0

## Task Another compound to look at: COc1ccc(CN2C(=O)CN(/N=C/c3ccc([N+](=O)[O-])o3)C2=O)cc1 [Analog 18]
## Result bin 1

## Task Another compound to look at: O=C1CN(/N=C/c2ccc([N+](=O)[O-])o2)C(=O)N1Cc1ccc(Br)cc1 [Analog 19]
## Result bin 1

## Task Another compound to look at: CCCCCCCCCCN1C(=O)CN(/N=C/c2ccc([N+](=O)[O-])o2)C1=O [Analog 10]
## Result bin 0

## Task Another compound to look at: O=C1CN(/N=C/c2ccc([N+](=O)[O-])o2)C(=O)N1Cc1ccccc1 [Analog 14]
## Result bin 1

## Task Another compound to look at: CCCN1C(=O)CN(/N=C/c2ccc([N+](=O)[O-])o2)C1=O [Analog 3]
## Result bin 2

## Task Another compound to look at: NCCCC(N)(C(=O)O)C(F)F (centres unmarked) [Eflornithine, reference compound]
## Result bin 2

###

- assay comment: Cytotoxicity (Cell Counting Kit-8, 3 days)
- Type: cell-based, bovine
- condition info: bovine, Madin–Darby bovine kidney (MDBK) cells, 37 °C, mean ± SD of triplicate
attribute measured: IC50 at 3 days (µM)
Enter your answer as a number in µM; do not include the unit.

Some solved entries appear below for comparison.
## Task Any idea what its IC50 at 3 days is? The compound is O=C1CN(/N=C/c2ccc([N+](=O)[O-])o2)C(=O)N1Cc1ccc(C(F)(F)F)cc1 [Analog 16]
## Result 56.6

## Task Another compound to look at: CCCCCCCN1C(=O)CN(/N=C/c2ccc([N+](=O)[O-])o2)C1=O [Analog 7]
## Result 92.3

***
## Task Any idea what its IC50 at 3 days is? The compound is Cc1ccc(CN2C(=O)CN(/N=C/c3ccc([N+](=O)[O-])o3)C2=O)cc1 [Analog 15]
## Result 34.3

###

- Test system: T. b. rhodesiense IL1501
- assay comment: In vitro trypanocidal activity (CellTiter-Glo, 3 days)
- Format: cell-based
- condition info: Trypanosoma brucei, 72 h, bloodstream forms, 37 °C, mean ± SD of triplicate, read-out: Trypanocidal Activity IC50 ± SD, Tbr IL1501
attribute measured: IC50 (µM)
Enter your answer as a number in µM; do not include the unit.

Some solved entries appear below for comparison.
## Task Any idea what its IC50 is? The molecule is "Cc1ccc(CN2C(=O)CN(/N=C/c3ccc([N+](=O)[O-])o3)C2=O)cc1"
## Result 6.1

## Task Another molecule to look at: "CCCCCCCCCN1C(=O)CN(/N=C/c2ccc([N+](=O)[O-])o2)C1=O"
## Result 0.6

## Task Another molecule to look at: "O=C1CN(/N=C/c2ccc([N+](=O)[O-])o2)C(=O)N1CCCc1ccccc1"
## Result 5.9

***
## Task Any idea what its IC50 is? The molecule is "CCCCCCCCCCN1C(=O)CN(/N=C/c2ccc([N+](=O)[O-])o2)C1=O"
## Result 0.61

###

- System: T. congolense IL3000
- assay comment: In vitro trypanocidal activity (CellTiter-Glo, 3 days)
- Type: cell-based
- condition info: Trypanosoma congolense, 72 h, bloodstream forms, 33 °C, mean ± SD of triplicate, read-out: Trypanocidal Activity IC50 ± SD, Tc IL3000
attribute measured: log10(IC50) (log10 of the value in nM)
Note: values are log10 of IC50 expressed in nM.

## Task Any idea what its log10(IC50) is? The compound is "O=C1CN(/N=C/c2ccc([N+](=O)[O-])o2)C(=O)N1Cc1ccc([N+](=O)[O-])cc1"
## Result 1.60

## Task Another compound to look at: "CCCCCCCCCCCCN1C(=O)CN(/N=C/c2ccc([N+](=O)[O-])o2)C1=O"
## Result 1.08

## Task Another compound to look at: "CCCCCCCCCN1C(=O)CN(/N=C/c2ccc([N+](=O)[O-])o2)C1=O"
## Result 1.00

## Task Another compound to look at: "CCCCN1C(=O)CN(/N=C/c2ccc([N+](=O)[O-])o2)C1=O"
## Result 2.49

## Task Another compound to look at: "Cc1ccc(CN2C(=O)CN(/N=C/c3ccc([N+](=O)[O-])o3)C2=O)cc1"
## Result 2.11

## Task Another compound to look at: "O=C1CN(/N=C/c2ccc([N+](=O)[O-])o2)C(=O)N1"
## Result 2.56

## Task Another compound to look at: "O=C1CN(/N=C/c2ccc([N+](=O)[O-])o2)C(=O)N1Cc1ccc(C(F)(F)F)cc1"
## Result 1.30

## Task Another compound to look at: N=C(N)c1ccc(OCCCCCOc2ccc(C(=N)N)cc2)cc1 [Pentamidine, reference compound]
## Result 2.52

## Task Another compound to look at: "CCCCCCCN1C(=O)CN(/N=C/c2ccc([N+](=O)[O-])o2)C1=O"
## Result 1.60

## Task Another compound to look at: CC1CS(=O)(=O)CCN1/N=C/c1ccc([N+](=O)[O-])o1 (stereo not shown) [Nifurtimox, reference compound]
## Result 3.03

## Task Another compound to look at: "CCCCCCCCCCCN1C(=O)CN(/N=C/c2ccc([N+](=O)[O-])o2)C1=O"
## Result 1.04

## Task Another compound to look at: "CCCCCN1C(=O)CN(/N=C/c2ccc([N+](=O)[O-])o2)C1=O"
## Result 2.54

###

# key: entry, value: IC50 at 3 days
- assay comment: Cytotoxicity (Cell Counting Kit-8, 3 days)
- Type: cell-based, bovine
- condition info: bovine, Madin–Darby bovine kidney (MDBK) cells, 37 °C, mean ± SD of triplicate

Some solved entries appear below for comparison.
## Task Any idea what its IC50 at 3 days is? The compound is "CCCCCCCCCCCCN1C(=O)CN(/N=C/c2ccc([N+](=O)[O-])o2)C1=O"
## Result > 246 µM

## Task Another compound to look at: "CCCCCCCCCCCN1C(=O)CN(/N=C/c2ccc([N+](=O)[O-])o2)C1=O"
## Result > 246 µM

Below: the item to evaluate.
## Task Any idea what its IC50 at 3 days is? The compound is "O=C1CN(/N=C/c2ccc([N+](=O)[O-])o2)C(=O)N1Cc1ccccc1"
## Result > 305 µM
